Measured values drawn from ChEMBL document CHEMBL1156921 for this set.

Assay notes: Cytotoxicity against human THP1 cells at 50 uM after 48 hrs by alamar blue assay
Assay type: cell-based
Condition set: THP-1 cells, read-out: INH
Quantity: cytotoxicity at 48 h, 50 µM (%)

Smiles data	Quantity	Reading
CC(=O)OC[C@]12CC[C@]3(C(C)C)C1=C1[C@H](C[C@@H]4[C@@]5(C)CC[C@H](OC(C)=O)C(C)(C)[C@@H]5CC[C@@]4(C)[C@]1(C)CC2)n1c(=O)[nH]c(=O)n13	cytotoxicity at 48 h, 50 µM	97
CC(=O)OC[C@]12CC[C@]3(C(C)C)C1=C1[C@H](C[C@@H]4[C@@]5(C)CC[C@H](OC(C)=O)C(C)(C)[C@@H]5CC[C@@]4(C)[C@]1(C)CC2)n1c(=O)n(C)c(=O)n13	cytotoxicity at 48 h, 50 µM	94
CCn1c(=O)n2n(c1=O)[C@]1(C(C)C)CC[C@]3(COC(C)=O)CC[C@]4(C)C(=C31)[C@@H]2C[C@@H]1[C@@]2(C)CC[C@H](OC(C)=O)C(C)(C)[C@@H]2CC[C@]14C	cytotoxicity at 48 h, 50 µM	48
CCC(=O)OC[C@]12CC[C@]3(C(C)C)C1=C1[C@H](C[C@@H]4[C@@]5(C)CC[C@H](OC(=O)CC)C(C)(C)[C@@H]5CC[C@@]4(C)[C@]1(C)CC2)n1c(=O)n(C)c(=O)n13	cytotoxicity at 48 h, 50 µM	16
